# Tested on: LNCap (PSMA+) cells
# Experiment: In vitro cell killing, Method 3: Live-Cell Analysis assay (Incucyte), PSMA-expressing target cells (LNCap)
# Assay type: cell-based
# Test Parameters: Homo sapiens, 24 hour timepoint, 5:1 effector cells to target cells, EC50 in molar (M), read-out: Incucyte ® pEC50, LNCap (converted)
Answer each item with its documented EC50.
One number for each entry, in M.

>  <Compound>
CN1C(=O)C[C@H](C(=O)NCCO[C@H]2CC[C@H](OCCCC(=O)N[C@H]3CC[C@H](C(=O)NCCNC(=O)[C@H](Cc4ccccc4)NC(=O)[C@H](Cc4ccccc4)NC(=O)CCCCCCCNC(=O)CC[C@H](NC(=O)N[C@@H](CCC(=O)O)C(=O)O)C(=O)O)CC3)CC2)[C@H]1c1cccnc1 [compound 2]

>  <Readout Name>
EC50

>  <Readout Unit>
M

>  <Observed Value>
3.98e-09

$$$$
>  <Compound>
CN1C(=O)C[C@H](C(=O)NCCO[C@H]2CC[C@H](OCCCC(=O)N[C@H]3CC[C@H](C(=O)N[C@@H](Cc4ccc5ccccc5c4)C(=O)NCCCC[C@H](NC(=O)N[C@@H](CCC(=O)O)C(=O)O)C(=O)O)CC3)CC2)[C@H]1c1cccnc1 [compound 1]

>  <Readout Name>
EC50

>  <Readout Unit>
M

>  <Observed Value>
2.51e-10

$$$$
>  <Compound>
CN1C(=O)C[C@H](C(=O)NCCO[C@H]2CC[C@H](OCCCC(=O)N[C@H]3CC[C@H](C(=O)NCCNC(=O)CC[C@H](NC(=O)N[C@@H](CCC(=O)O)C(=O)O)C(=O)O)CC3)CC2)[C@H]1c1cccnc1 [compound 4]

>  <Readout Name>
EC50

>  <Readout Unit>
M

>  <Observed Value>
1e-08

$$$$

Now, please, on to the next compound.
Inquiry: Return the recorded EC50 value; entry: CN1C(=O)C[C@H](C(=O)NCCNC(=O)[C@H](Cc2ccccc2)NC(=O)[C@H](Cc2ccccc2)NC(=O)CCCCCCCNC(=O)CC[C@H](NC(=O)N[C@@H](CCC(=O)O)C(=O)O)C(=O)O)[C@H]1c1cccnc1 [compound 3]
Reply text: 1.26e-08

Origin of values: patent US20260325580A1
